Biological target: JAK3 (Homo sapiens)
Assay: JAK3 inhibition assay (33P incorporation into poly(Glu)4Tyr)
Assay type: biochemical
Details: Table 6; enzyme inhibition data (Ki)
Method: Compounds were screened for their ability to inhibit JAK using the assay shown below. Reactions were carried out in a kinase buffer containing 100 mM HEPES (pH 7.4), 1 mM DTT, 10 mM MgCl2, 25 mM NaCl, and 0.01% BSA. […] To each well of a 96 well polycarbonate plate was added 1.5 μl of a candidate JAK3 inhibitor along with 50/1 of kinase buffer containing 2 μM poly(Glu)4Tyr and 10 μM ATP. […] After washing, 60 μl of scintillation fluid was added and ^33P incorporation detected on a Perkin Elmer TopCount.
assay.metric: Ki

These solved cases illustrate the format of a correct answer.
> print(dat)
                           structure.string             val
1  CCC(=O)N1CC[C@H](Nc2c(Cl)cnc3[nH]ccc23)C1  500 to 5000 nM
2    N#Cc1ccc(Nc2c(Cl)cnc3[nH]ccc23)c(Cl)c1        < 500 nM
3  N#CCN(Cc1ccc(F)cc1)C(=O)c1cc(-c2c(F)cnc3[nH]ccc23)c[nH]1        < 500 nM
4  N#CCCN(CCC(F)(F)F)C(=O)c1csc(-c2ccnc3[nH]ccc23)n1        < 500 nM

With JAK3 (Homo sapiens) as the test system, provide measured Ki for this compound: `O=C(Nc1ccccc1)c1cc(-c2ccnc3[nH]ccc23)c[nH]1`
< 500 nM

// output Ki; input `O=C(NCCC(F)(F)F)c1ccccc1-c1ccnc2[nH]ccc12` ; system JAK3 (Homo sapiens)
> 5000 nM

Lab note: record Ki of `CNC(=O)c1cc(-c2c(Cl)cnc3[nH]ccc23)c[nH]1` tested on JAK3 (Homo sapiens).
< 500 nM

Quote JAK3 (Homo sapiens) Ki for entry `COc1ccc(Cl)cc1-c1ccnc2[nH]ccc12` .
500 to 5000 nM

State recorded Ki with JAK3 (Homo sapiens), entry `CC(C)CCNC(=O)c1csc(-c2ccnc3[nH]ccc23)n1` , no comment.
500 to 5000 nM

---

Target: JAK3 (Homo sapiens, UniProt P52333)
Sequence (P52333 whole entry): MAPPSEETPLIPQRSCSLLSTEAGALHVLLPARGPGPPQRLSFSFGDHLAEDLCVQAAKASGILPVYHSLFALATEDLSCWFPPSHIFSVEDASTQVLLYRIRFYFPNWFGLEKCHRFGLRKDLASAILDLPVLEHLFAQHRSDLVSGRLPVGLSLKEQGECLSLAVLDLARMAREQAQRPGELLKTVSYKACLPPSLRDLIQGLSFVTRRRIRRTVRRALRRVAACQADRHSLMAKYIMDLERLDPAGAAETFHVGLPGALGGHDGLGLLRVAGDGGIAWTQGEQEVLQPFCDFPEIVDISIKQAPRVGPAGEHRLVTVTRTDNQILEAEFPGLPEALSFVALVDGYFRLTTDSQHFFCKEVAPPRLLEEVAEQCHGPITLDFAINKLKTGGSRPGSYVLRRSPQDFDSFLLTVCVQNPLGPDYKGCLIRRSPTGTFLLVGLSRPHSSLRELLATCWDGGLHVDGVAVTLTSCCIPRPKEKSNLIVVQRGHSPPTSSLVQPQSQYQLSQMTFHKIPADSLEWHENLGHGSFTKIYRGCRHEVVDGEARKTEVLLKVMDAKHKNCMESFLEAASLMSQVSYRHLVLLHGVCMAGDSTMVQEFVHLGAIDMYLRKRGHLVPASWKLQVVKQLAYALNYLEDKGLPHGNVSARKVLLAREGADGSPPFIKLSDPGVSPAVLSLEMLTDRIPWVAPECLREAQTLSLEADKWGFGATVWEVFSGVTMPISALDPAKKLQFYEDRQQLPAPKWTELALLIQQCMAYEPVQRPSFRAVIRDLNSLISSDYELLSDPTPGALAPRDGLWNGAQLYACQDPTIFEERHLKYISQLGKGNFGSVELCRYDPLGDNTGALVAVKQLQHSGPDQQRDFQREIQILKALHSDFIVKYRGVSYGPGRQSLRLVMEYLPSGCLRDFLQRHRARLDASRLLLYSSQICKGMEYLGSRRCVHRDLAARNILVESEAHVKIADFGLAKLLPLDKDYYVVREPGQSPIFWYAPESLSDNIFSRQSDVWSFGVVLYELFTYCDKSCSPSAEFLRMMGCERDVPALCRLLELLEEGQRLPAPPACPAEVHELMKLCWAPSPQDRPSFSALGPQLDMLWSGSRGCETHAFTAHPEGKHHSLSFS
Experiment: JAK3 inhibition assay (33P incorporation into poly(Glu)4Tyr)
Type: biochemical
Details: Table 6; enzyme inhibition data (Ki)
Description: Compounds were screened for their ability to inhibit JAK using the assay shown below. Reactions were carried out in a kinase buffer containing 100 mM HEPES (pH 7.4), 1 mM DTT, 10 mM MgCl2, 25 mM NaCl, and 0.01% BSA. […] To each well of a 96 well polycarbonate plate was added 1.5 μl of a candidate JAK3 inhibitor along with 50/1 of kinase buffer containing 2 μM poly(Glu)4Tyr and 10 μM ATP. […] After washing, 60 μl of scintillation fluid was added and ^33P incorporation detected on a Perkin Elmer TopCount.
pKi: −log10 of the molar value.
assay.metric: pKi

> print(dat)
                                   molecule           val
1  O=C(c1cc(-c2ccnc3[nH]ccc23)c[nH]1)N1CCC(O)C1 (centres unmarked) [compound 377]  5.30 to 6.30

Return pKi (reported value) for this molecule: O=C(CC(F)(F)F)N1CCCC(Nc2c(Cl)cnc3[nH]ccc23)C1 (centres unmarked) [compound 186]
> 6.30

Please report the measured pKi for Nc1nc(-c2ccnc3[nH]ccc23)ncc1F [compound 203]
5.30 to 6.30

Return value of pKi for input CCCNC(=O)c1ccccc1-c1ccnc2[nH]ccc12 [compound 258] , no commentary.
< 5.30

Give the measured pKi for CCCCOc1ccccc1-c1ccnc2[nH]ccc12 [compound 241]
< 5.30
